PROTOCOL_NOTES: qHTS assay to identify small molecule antagonists of the progesterone receptor (PR) signaling pathway - cell viability counter screen (AID 1346798); also: nearly all actives have a fitted effect of over 50% in size
TEST_PARAMETERS: PR-UAS-bla HEK293T viability, CellTiter-Glo luminescence, 16 h; series mostly up to 92.4 µM
Inconclusive results are not listed. Activity calls are given as the source filed them. Calls follow the shape of the dose curve; as a rule, active = well fitted cell-killing curve with a large enough effect in the repeat runs; inconclusive = weak or mixed curves, or effect the other way; inactive = no such curve, though single readings can be large or run the other way.
Return exactly one item of y = active, n = inactive

Study these solved cases before continuing.
• Cc1nc(Nc2ncc(C(=O)Nc3c(C)cccc3Cl)s2)cc(N2CCN(CCO)CC2)n1 = n
• CC1=CP(=O)(c2ccccc2)CC1 (stereo not drawn) = n

(Q) Please state the recorded outcome for this compound: Cc1cc(Nc2ccc(O)cc2)ccc1N
(A) n

(Q) CCC(C)c1ccccc1 (stereo not drawn) , same question.
(A) n

(Q) Moving on to C=CC(=O)OCCC#N
(A) n

(Q) Proceed to CCC1CCCCC1
(A) n

(Q) Follow-up entry: COc1cccc(O)c1
(A) n

(Q) Item: CCCC(=O)OCC(COC(=O)CCC)OC(=O)CCC
(A) n

(Q) What do we get for C/C=C/CO ?
(A) n

(Q) Moving on to the next compound: C=C1C(C)(C)[C@@]2(Cl)C(Cl)[C@]1(Cl)C(Cl)(Cl)C2(Cl)Cl (stereo partly drawn)
(A) y

(Q) Now this one: OCCC(O)CO (stereo not drawn)
(A) n

(Q) What would you report for CC(C)(c1cc(Br)c(OCCO)c(Br)c1)c1cc(Br)c(OCCO)c(Br)c1 ?
(A) y

(Q) Now the same for C#CC(O)CCC (stereo not drawn)
(A) n

(Q) Now try C=CC(=C)CCC=C(C)C .
(A) y

(Q) Please do the same for CCc1ccc(O)c(C(C)(C)C)c1 as well.
(A) n

(Q) Same question for CCCCNc1c(C(=O)OCC)c(C)nc2c1cnn2CC please.
(A) n

(Q) // query: NCCCCCCNCCCCCCN
(A) n

(Q) Same question, C=C(C)C(=O)OCCC[Si](Cl)(Cl)Cl this time
(A) n
